Assay: chemical genetic growth profiling, strain panel (AID 1159580);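 further: tested at 20 µM; growth read once vehicle control cultures reached saturation at 30 °C; 1 = growth at the plate median or of vehicle wells; lower values mean less growth of the strain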
Details: S. cerevisiae deletion strains, growth OD, locus YBR136W, strain MEC1, hits give low values
About 2,000 (36%) of roughly 5,500 compounds were called active. Inconclusive results (about 18%) are left out. Some of the results follow.
Recorded Endpoint: normalized growth
Number only, no unit.

Return normalized growth for the following compound: N/C(CSc1ncccc1C(F)(F)F)=N/OC(=O)Nc1cccc(Cl)c1
0.995

Return normalized growth for the following compound: O=C(NNC(=O)c1csc(-c2cccs2)n1)c1ccc(C(F)(F)F)cc1
0.979

Return normalized growth for the following compound: Cc1ccc2c(c1)CCCN2CC(=O)N(c1ccccc1)C1CCCCC1
0.986

Return normalized growth for the following compound: CC(C)(C)c1csc(NNC(=O)c2ccc(Cl)cc2)n1
0.981

Return normalized growth for the following compound: Cc1ccc(C(=O)O/N=C(/N)CSc2ncccc2C(F)(F)F)cc1
1.01

Return normalized growth for the following compound: COc1cc(NC(=S)Nc2ccccc2OC(F)(F)F)cc(C(F)(F)F)c1
0.975

Return normalized growth for the following compound: Cc1cc(C(=O)N(c2ccccc2)C(C)C2CC2)c(Cl)cc1Cl (stereo unspecified)
0.987

Return normalized growth for the following compound: CC(C)(C)c1csc(NC(=O)c2ccc(Cl)cc2Cl)n1
0.971

Return normalized growth for the following compound: C/C(=N/Nc1nc(C(C)(C)C)cs1)c1ccc(Cl)c(Cl)c1
0.99

Return normalized growth for the following compound: Cc1nc(-c2ccc(C(F)(F)F)cn2)[nH]c(=O)c1Cl
0.922

Return normalized growth for the following compound: Cc1cc(C(=O)O/N=C(/N)CSc2ncccc2C(F)(F)F)no1
0.992

---

Experiment: chemical genetic growth profiling, strain panel (AID 1159580);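 further: tested at 20 µM; growth read once vehicle control cultures reached saturation at 30 °C; 1 = growth at the plate median or of vehicle wells; lower values mean less growth of the strain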
Details: S. cerevisiae deletion strains, growth OD, locus YBR135W, strain CKS1
Among all 5,500 compounds or so, about 2,000 (36%) were called active. Not shown: some 18% with an inconclusive outcome. Cut-off read from the data, not from the text of the source: active = normalized growth mostly below about 0.91 (no sharp cut-off); inconclusive = no clear call, values can overlap the other calls; inactive = mostly above about 0.92. This is one part of the list.
# output must be one of true (active), false (inactive)

GET /call?item= CC(C)(C)c1csc(NNC(=O)c2ccc(Cl)cc2)n1 returns the recorded outcome of this test.
false

GET /call?item= O=C1c2ccccc2O[C@@H](c2ccccc2)[C@@H]1NC1CCCCC1 returns the recorded outcome of this test.
false

GET /call?item= Cc1csc2ncnc(N/N=C\c3ccccc3Cl)c12 returns the recorded outcome of this test.
false

GET /call?item= CN(C(=O)N(C)c1ccc(Cl)cc1C(=O)c1ccccc1Cl)c1ccc(Cl)cc1C(=O)c1ccccc1Cl returns the recorded outcome of this test.
true

GET /call?item= CC(C)(C)c1csc(NC(=O)c2ccc(Cl)cc2Cl)n1 returns the recorded outcome of this test.
false

GET /call?item= Cc1cc(C(=O)O/N=C(/N)CSc2ncccc2C(F)(F)F)no1 returns the recorded outcome of this test.
false

GET /call?item= CC(C)c1ccc(-c2cc(=O)c3ccccc3o2)cc1 returns the recorded outcome of this test.
false

GET /call?item= COc1cc(NC(=S)Nc2ccccc2OC(F)(F)F)cc(C(F)(F)F)c1 returns the recorded outcome of this test.
false

GET /call?item= O=C(NNC(=O)c1csc(-c2cccs2)n1)c1ccc(C(F)(F)F)cc1 returns the recorded outcome of this test.
false

GET /call?item= COc1ccc(C2CC(c3ccccc3)=Nc3ccccc3S2)cc1OC (centres undefined) returns the recorded outcome of this test.
false

GET /call?item= C/C(=N/Nc1nc(C(C)(C)C)cs1)c1ccc(Cl)c(Cl)c1 returns the recorded outcome of this test.
false

GET /call?item= Clc1ccccc1N/N=C\Cc1nnnn1-c1ccccc1 returns the recorded outcome of this test.
false

GET /call?item= CCC(C)COC(=O)/C=C/c1ccc(N=Cc2ccc(OC)cc2)cc1 (centres undefined) returns the recorded outcome of this test.
false

GET /call?item= O=C(NCc1cccs1)c1csc(Cc2c(Cl)cccc2Cl)n1 returns the recorded outcome of this test.
false

GET /call?item= C#Cc1cccc(N=Cc2cc(Cl)cc(Br)c2O)c1 returns the recorded outcome of this test.
true

GET /call?item= CC(C)(C)c1csc(NC(=O)Nc2ccc(Cl)cc2)n1 returns the recorded outcome of this test.
false

GET /call?item= N/C(CSc1ncccc1C(F)(F)F)=N/OC(=O)Nc1cccc(Cl)c1 returns the recorded outcome of this test.
false

GET /call?item= O=C1Nc2ccccc2/C1=N/N=C\c1ccccc1Cl returns the recorded outcome of this test.
false

GET /call?item= Cc1ccc(C(O)(c2ccccc2)c2ccccc2)c2ccccc12 returns the recorded outcome of this test.
false

GET /call?item= CC(C)(C)c1cc2nc(C(F)(F)F)cc(NNC(=O)c3ccc(Cl)cc3)n2n1 returns the recorded outcome of this test.
false

GET /call?item= Fc1ccc(N/N=C\Cc2nnnn2-c2ccccc2)c(F)c1 returns the recorded outcome of this test.
false

GET /call?item= Cc1nc(-c2ccc(C(F)(F)F)cn2)[nH]c(=O)c1Cl returns the recorded outcome of this test.
false

GET /call?item= N#CCCCCOc1ccc2c(=O)cc(-c3ccccc3)oc2c1 returns the recorded outcome of this test.
false

GET /call?item= N#Cc1c(Br)cnn1Cc1cc(C(F)(F)F)cc(C(F)(F)F)c1 returns the recorded outcome of this test.
false

---

Assay: chemical genetic growth profiling, strain panel (AID 1159580);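 further: tested at 20 µM; growth read once vehicle control cultures reached saturation at 30 °C; 1 = growth at the plate median or of vehicle wells; lower values mean less growth of the strain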
Conditions: S. cerevisiae deletion strains, growth OD, locus YDL035C, strain GPR1, hits give low values
The campaign covered roughly 5,500 compounds. About 2,000 (36%) were called active. About 18% were inconclusive and are not listed. The list shows a part of the results.
Task for the reader: assign each of the following compounds its reported normalized growth.
Number only, no unit.

Return normalized growth for the following compound: CC(=O)O[C@@H]1CC2C(C)(C)C(=O)CC[C@]2(C)C2CC[C@@]3(C)[C@H](c4ccoc4)OC(=O)C4OC43[C@@]21C (stereo not given in full)
0.985

Return normalized growth for the following compound: CN(C)CCC=C1c2ccccc2CCc2ccccc21
1.02

Return normalized growth for the following compound: COc1c2c(cc3c1OCO3)CC[N+](C)=C2
1.01

Return normalized growth for the following compound: COc1ccc(-c2cc(=O)c3c(OC(C)=O)cc(OC(C)=O)cc3o2)cc1
0.975

Return normalized growth for the following compound: CC(=O)O[C@H]1C[C@@]2(C)[C@H](c3ccoc3)OC(=O)[C@H]3O[C@]32[C@@]2(C)C1[C@]1(C)C(C[C@H]2OC(C)=O)C(C)(C)[C@H](OC(C)=O)C[C@@H]1OC(C)=O (stereo not given in full)
0.968

Return normalized growth for the following compound: O=C1c2c(O)ccc(O)c2C(=O)c2c(NCCNCCO)ccc(NCCNCCO)c21
0.976

Return normalized growth for the following compound: CC(=O)Oc1cc(OC(C)=O)c2c(=O)c(-c3ccccc3)coc2c1
0.997

Return normalized growth for the following compound: N[C@@H]1CONC1=O
1.03

Return normalized growth for the following compound: COc1cccc2c1cc([N+](=O)[O-])c1c(C(=O)O)cc3c(c12)OCO3
1.01

Return normalized growth for the following compound: COc1cccc(-c2cc(=O)c3ccc(OC)cc3o2)c1
0.922

Return normalized growth for the following compound: COc1ccc(-c2cc(=O)c3cc(OC)ccc3o2)cc1
0.977

Return normalized growth for the following compound: CC(=O)Oc1cc(-c2coc3cc(OC(C)=O)c(OC(C)=O)c(OC(C)=O)c3c2=O)cc(OC(C)=O)c1OC(C)=O
0.83

Return normalized growth for the following compound: COc1cc2cc[n+]3cc4c(OC)c(OC)ccc4cc3c2cc1OC
0.975

Return normalized growth for the following compound: O=c1c(-c2ccc(O)cc2)coc2cc(O)cc(O)c12
1.07

Return normalized growth for the following compound: CCn1cc(C(=O)O)c(=O)c2cc(F)c(N3CCNCC3)cc21
1

Return normalized growth for the following compound: CC(C)Oc1ccc2c(=O)cc(-c3ccccc3)oc2c1
0.984

Return normalized growth for the following compound: COc1ccc(-c2coc3cc(OC)cc(O)c3c2=O)cc1
0.959

Return normalized growth for the following compound: CN1CCN2c3ccccc3Cc3ccccc3C2C1 (stereo not given)
1.03

Return normalized growth for the following compound: O=c1c(-c2ccccc2)coc2cc(O)cc(O)c12
0.825

Return normalized growth for the following compound: Cn1c(=O)c2[nH]c(C3CCCC3)nc2n(C)c1=O
1.01

Return normalized growth for the following compound: CCN(CCCCOC(=O)c1ccc(OC)c(OC)c1)C(C)Cc1ccc(OC)cc1 (stereo not given)
0.972

Return normalized growth for the following compound: CSc1ccc2c(c1)C(N1CCN(C)CC1)Cc1ccccc1S2 (stereo not given)
0.755

Return normalized growth for the following compound: COc1ccc(-c2cc(=O)c3ccccc3o2)cc1
0.656

Return normalized growth for the following compound: CC(=O)OC1CC2C(C)(C)CCCC2(C)C2CCC3(C)C(c4ccoc4)OC(=O)C4OC43C12C (stereo not given)
0.975

Return normalized growth for the following compound: CNCCC=C1c2ccccc2CCc2ccccc21
1
